Reported IC50 is given for each of the following compounds.
target: Integrin alpha-5/beta-1 (Homo sapiens, UniProt P05556+P08648); assay: Antagonist activity at integrin alpha5beta1 in human K562 cells assessed as inhibition of cell adhesion in presence of human serum albumin; type: functional, cell-based
Sequence (P05556 21-798 limits assumed): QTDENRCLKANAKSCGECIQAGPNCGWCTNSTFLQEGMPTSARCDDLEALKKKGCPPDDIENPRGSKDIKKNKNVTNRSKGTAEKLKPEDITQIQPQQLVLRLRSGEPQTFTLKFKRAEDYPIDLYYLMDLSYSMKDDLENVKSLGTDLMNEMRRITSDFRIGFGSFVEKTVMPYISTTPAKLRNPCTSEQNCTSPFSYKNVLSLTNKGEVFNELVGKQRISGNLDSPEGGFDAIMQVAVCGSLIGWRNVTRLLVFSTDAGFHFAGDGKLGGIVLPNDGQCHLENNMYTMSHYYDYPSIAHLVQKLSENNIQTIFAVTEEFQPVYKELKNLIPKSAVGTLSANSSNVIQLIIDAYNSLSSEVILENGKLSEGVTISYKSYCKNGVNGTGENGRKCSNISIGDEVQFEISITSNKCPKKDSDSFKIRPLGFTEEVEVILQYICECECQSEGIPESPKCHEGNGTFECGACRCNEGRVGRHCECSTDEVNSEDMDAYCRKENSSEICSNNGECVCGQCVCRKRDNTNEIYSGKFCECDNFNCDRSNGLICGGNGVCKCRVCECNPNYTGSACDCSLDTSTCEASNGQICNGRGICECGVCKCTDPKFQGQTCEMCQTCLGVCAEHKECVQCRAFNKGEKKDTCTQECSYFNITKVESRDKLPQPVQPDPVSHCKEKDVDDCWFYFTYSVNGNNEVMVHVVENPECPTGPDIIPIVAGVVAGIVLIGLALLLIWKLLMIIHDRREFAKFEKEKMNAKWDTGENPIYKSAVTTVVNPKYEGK
Sequence (P08648 42-894 limits assumed): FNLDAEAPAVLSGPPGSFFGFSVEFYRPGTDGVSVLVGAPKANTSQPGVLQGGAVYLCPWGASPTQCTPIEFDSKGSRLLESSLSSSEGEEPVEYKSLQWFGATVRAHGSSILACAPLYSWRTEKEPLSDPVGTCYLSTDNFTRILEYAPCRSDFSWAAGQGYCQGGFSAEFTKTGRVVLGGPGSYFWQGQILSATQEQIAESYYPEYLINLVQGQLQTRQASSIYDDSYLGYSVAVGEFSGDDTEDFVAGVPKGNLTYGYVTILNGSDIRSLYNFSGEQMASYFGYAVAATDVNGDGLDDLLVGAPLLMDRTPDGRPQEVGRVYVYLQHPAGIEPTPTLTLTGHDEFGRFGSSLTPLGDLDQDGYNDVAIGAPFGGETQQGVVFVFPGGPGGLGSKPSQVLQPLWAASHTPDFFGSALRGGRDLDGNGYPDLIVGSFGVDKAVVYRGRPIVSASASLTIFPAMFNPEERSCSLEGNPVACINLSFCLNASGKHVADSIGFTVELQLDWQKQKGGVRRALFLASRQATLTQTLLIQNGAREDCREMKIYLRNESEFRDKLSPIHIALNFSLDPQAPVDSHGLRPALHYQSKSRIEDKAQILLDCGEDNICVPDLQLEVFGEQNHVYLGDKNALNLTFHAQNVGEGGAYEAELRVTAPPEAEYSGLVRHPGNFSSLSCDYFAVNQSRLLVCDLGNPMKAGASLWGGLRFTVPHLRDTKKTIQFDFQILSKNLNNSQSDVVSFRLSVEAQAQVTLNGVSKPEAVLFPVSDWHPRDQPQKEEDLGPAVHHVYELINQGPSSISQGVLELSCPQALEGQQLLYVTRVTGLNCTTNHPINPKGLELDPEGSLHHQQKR
Sequence (P08648 895-1049 limits assumed): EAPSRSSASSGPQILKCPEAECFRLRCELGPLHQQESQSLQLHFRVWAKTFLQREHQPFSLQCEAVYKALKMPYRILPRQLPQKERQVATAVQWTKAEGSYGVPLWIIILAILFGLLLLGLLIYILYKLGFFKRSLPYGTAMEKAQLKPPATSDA
measure: IC50 (µM)

| mol | reading.unit | censor.symbol | quantitative.readout |
| --- | --- | --- | --- |
| CNc1cccc(CCOc2ccc(C[C@H](NC(=O)c3ccccc3Cl)C(=O)O)cc2)n1 | µM | > | 26 |
| CNc1cccc(CCOc2ccc(C[C@H](NC(=O)c3ccc(F)cc3C)C(=O)O)cc2)n1 | µM | = | 24 |
| CNc1cccc(CCOc2ccc(C[C@H](NC(=O)c3ccc(F)cc3Cl)C(=O)O)cc2)n1 | µM | = | 11 |
| CNc1cccc(CCOc2ccc(C[C@H](NC(=O)c3ccc(F)cc3OC)C(=O)O)cc2)n1 | µM | > | 100 |
| CNc1cccc(CCOc2ccc(C[C@H](NC(=O)c3ccc(F)cc3C3CC3)C(=O)O)cc2)n1 | µM | = | 7.7 |
| CNc1cccc(CCOc2ccc(C[C@H](NC(=O)c3c(Cl)cncc3Cl)C(=O)O)cc2)n1 | µM | = | 0.055 |

###

molecular target: Integrin alpha-5/beta-1 (Homo sapiens, UniProt P05556+P08648); experiment: Binding affinity to integrin alpha5beta1; type: protein-complex assay
Reported IC50 is given for each of the following compounds.

| mol | IC50 |
| --- | --- |
| CNc1cccc(CCOc2ccc(C[C@H](NC(=O)c3ccc(F)cc3Cl)C(=O)O)cc2)n1 | 2 nM |
| O=C(N[C@@H](Cc1ccc(OCCCNc2ccccn2)cc1)C(=O)O)c1c(Cl)cccc1Cl | 11 nM |
| CNc1cccc(CCOc2ccc(C[C@H](NC(=O)c3c(Cl)cccc3Cl)C(=O)O)cc2F)n1 | 2 nM |
| CNc1cccc(CCOc2csc(C[C@H](NC(=O)c3c(Cl)cccc3Cl)C(=O)O)c2)n1 | 110 nM |
| CNc1cccc(CCOc2ccc(C[C@H](NC(=O)c3c(F)cccc3Cl)C(=O)O)cc2)n1 | < 1 nM |
| CNc1cccc(CCCc2ccc(C[C@H](NC(=O)c3c(Cl)cccc3Cl)C(=O)O)nc2)n1 | 9 nM |
| CNc1cccc(CCOc2ccc(C[C@H](NC(=O)c3c(C)cccc3C)C(=O)O)cc2)n1 | 1 nM |
| CNc1cccc(CCOc2ccc(C[C@H](NC(=O)c3ccccc3)C(=O)O)cc2)n1 | 49 nM |
| CNc1cccc(CCOc2c(C)cc(C[C@H](NC(=O)c3c(Cl)cccc3Cl)C(=O)O)cc2C)n1 | 21 nM |
| CNc1cccc(CCOc2ccc(C[C@H](NC(=O)c3c(Cl)cccc3Cl)C(=O)O)nc2)n1 | 1 nM |
| CNc1cccc(CCOc2ccc(C[C@H](NC(=O)c3c(Cl)cccc3Cl)C(=O)O)cc2C)n1 | 3 nM |
| O=C(N[C@@H](Cc1ccc(OCCNc2ccccn2)cc1)C(=O)O)c1c(Cl)cccc1Cl | 82 nM |
| CNc1cccc(CCOc2ccc(C[C@H](NC(=O)c3c(C)cc(C)cc3C)C(=O)O)cc2)n1 | 1 nM |
| CCc1cc(F)ccc1C(=O)N[C@@H](Cc1ccc(OCCc2cccc(NC)n2)cc1)C(=O)O | 4 nM |
| O=C(N[C@@H](Cc1cccc(OCCNc2ccccn2)c1)C(=O)O)c1c(Cl)cccc1Cl | 5900 nM |
| CNc1cccc(CCCc2ccc(C[C@H](NC(=O)c3c(Cl)cccc3Cl)C(=O)O)cn2)n1 | 5 nM |
| CNc1cccc(CCOc2ccc(C[C@H](NC(=O)c3ccc(F)cc3C)C(=O)O)cc2)n1 | 9 nM |
| CNc1cccc(CCOc2ccc(C[C@H](NC(=O)c3c(Cl)cccc3Cl)C(=O)O)cn2)n1 | 6 nM |
| CNc1cccc(CCOc2ccc(C[C@H](NC(=O)c3c(Cl)cncc3Cl)C(=O)O)cc2)n1 | < 1 nM |
| CNc1cccc(CCOc2ccc(C[C@H](NC(=O)c3c(Cl)cccc3Cl)C(=O)O)cc2)n1 | < 1 nM |

The origin of these recorded values is ChEMBL document CHEMBL2029275.
